# ASSAY_PROTOCOL: chemical genetic growth profiling, strain panel (AID 1159580);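 note: tested at 20 µM; growth read once vehicle control cultures reached saturation at 30 °C; 1 = growth at the plate median or of vehicle wells; lower values mean less growth of the strain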
# PROTOCOL_CONDITIONS: S. cerevisiae deletion strains, growth OD, locus YPL078C, strain atp4, stronger effect = lower value
Among all 5,500 compounds or so, about 2,000 (36%) were called active. Not shown: some 18% with an inconclusive outcome. This is one part of the list.
normalized growth values by entry
ASSAY_METRIC: normalized growth

NCC(=O)c1ccccc1: 1.02
O=C(NCO)c1cccnc1: 1.01
O=C(O)c1cccnc1: 0.999
NC(=O)c1cccnc1: 0.98
Cc1c(C)c2c(c(C)c1O)CCC(C)(CCCC(C)CCCC(C)CCCC(C)C)O2 (stereo not given): 1.02

* * *

# ASSAY_PROTOCOL: chemical genetic growth profiling, strain panel (AID 1159580)
# PROTOCOL_CONDITIONS: S. cerevisiae deletion strains, growth OD, locus YDR335W, strain msn5, stronger effect = lower value
In all, about 5,500 compounds went through this assay and about 2,000 (36%) were called active. Inconclusive results (about 18%) are left out. The list shows a part of the results.
ASSAY_METRIC: normalized growth

O=C(O)c1ccccc1: 0.976
Nc1ccc(S(=O)(=O)NC(=O)c2ccccc2)cc1: 0.985
CC(=O)c1ccc(O)c(CC=C(C)C)c1: 0.994
CC(=O)O[C@@H]1CC2C(C)(C)C(=O)C=C[C@]2(C)C2CC[C@]3(C)C(=CC(=O)O[C@H]3c3ccoc3)[C@@]21C (stereo not given in full): 1.01
CC12CCC(=O)C=C1CCC1C2[C@@H](O)CC2(C)C1CC[C@]2(O)C(=O)COP(=O)(O)O (stereo not given in full): 1.01
CO[C@H]1CC(O[C@@H]2/C(C)=C/C[C@@H]3C[C@@H](C[C@]4(CC[C@H](C)[C@@H](C5CCCCC5)O4)O3)OC(=O)[C@@H]3C=C(C)/C(=N\O)[C@H]4OC/C(=C\C=C\[C@@H]2C)[C@]43O)O[C@@H](C)C1O (stereo not given in full): 0.982
CCOC(=O)NNc1nncc2ccccc12: 1.01
CC(=O)O[C@@H]1CC2C(C)(C)[C@H](O)C=C[C@]2(C)C2CC[C@]3(C)C(=CC(=O)O[C@H]3c3ccoc3)[C@@]21C (stereo not given in full): 0.975
O=C(NCO)c1cccnc1: 1.01
CCN(CC)CCOC(=O)C1(C2CCCCC2)CCCCC1: 0.981
Cc1cc(=O)oc2cc(O)c(O)cc12: 0.994
O=C(O)c1cccnc1: 0.993
CC(=O)O[C@@H]1C=C[C@@]2(C)C(C[C@@H](OC(C)=O)[C@@]3(C)C4=CC(=O)O[C@@H](c5ccoc5)[C@]4(C)CCC23)C1(C)C (stereo not given in full): 0.986
NS(=O)(=O)c1cc2c(cc1Cl)NC(CSCc1ccccc1)=NS2(=O)=O: 1.02
CCN(CC)CCOCCOC(=O)C1(c2ccccc2)CCCC1: 0.996

* * *

# ASSAY_PROTOCOL: chemical genetic growth profiling, strain panel (AID 1159580);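 note: tested at 20 µM; growth read once vehicle control cultures reached saturation at 30 °C; 1 = growth at the plate median or of vehicle wells; lower values mean less growth of the strain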
# PROTOCOL_CONDITIONS: S. cerevisiae deletion strains, growth OD, locus YDR137W, strain rgp1, stronger effect = lower value
The whole screen tested about 5,500 compounds, of which about 2,000 (36%) were called active. Roughly 18% stayed inconclusive and do not appear here. The list shows a part of the results.
ASSAY_METRIC: normalized growth

CCCN(CCC)S(=O)(=O)c1ccc(C(=O)O)cc1: 1.01
CC(=O)N[C@@H](Cc1c[nH]c2ccccc12)C(N)=O: 1.01
COc1ccc(C2Sc3ccccc3N(CCN(C)C)C(=O)C2OC(C)=O)cc1 (stereo unspecified): 1.01
CN(C)C(=O)Oc1cccc([N+](C)(C)C)c1: 1.01
O=C(NCO)c1cccnc1: 1.02
O=C(O)c1cc(O)c2c(c1)[C@@H]([C@H]1c3cc(C(=O)O)cc(O)c3C(=O)c3c(O[C@H]4O[C@H](CO)[C@@H](O)[C@H](O)[C@H]4O)cccc31)c1cccc(O[C@H]3O[C@H](CO)[C@@H](O)[C@H](O)[C@H]3O)c1C2=O: 0.953
CC(C)CCCC(C)C1CCC2C3=CC[C@H]4C[C@@H](O)CC[C@]4(C)C3CC[C@@]21C (stereo partly specified): 0.823
Cc1cc(=O)oc2cc(O)cc(O)c12: 0.962
CC(C)CCCC(C)C1CCC2C3C[C@@H](O)[C@@]4(O)C[C@@H](O)CC[C@]4(C)C3CC[C@]12C (stereo partly specified): 0.493
CCCSc1ccc2nc(NC(=O)OC)[nH]c2c1: 0.862
O=C(O)c1ccc(S(=O)(=O)N(Cl)Cl)cc1: 1.01
CN[C@@H]1[C@H](O)[C@H](NC)[C@H]2O[C@@]3(O)C(=O)C[C@@H](C)O[C@H]3O[C@@H]2[C@H]1O: 0.989
CO[C@H]1CC(O[C@@H]2/C(C)=C/C[C@@H]3C[C@@H](C[C@]4(CC[C@H](C)[C@@H](C5CCCCC5)O4)O3)OC(=O)[C@@H]3C=C(C)/C(=N\O)[C@H]4OC/C(=C\C=C\[C@@H]2C)[C@]43O)O[C@@H](C)C1O (stereo partly specified): 0.39
O=C(O)c1cccnc1: 1.05
CCCOc1ccc2nc(NC(=O)OC)[nH]c2c1: 0.951
Oc1c(Cl)cc(Cl)cc1Sc1cc(Cl)cc(Cl)c1O: 0.09

* * *

# ASSAY_PROTOCOL: chemical genetic growth profiling, strain panel (AID 1159580);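 note: tested at 20 µM; growth read once vehicle control cultures reached saturation at 30 °C; 1 = growth at the plate median or of vehicle wells; lower values mean less growth of the strain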
# PROTOCOL_CONDITIONS: S. cerevisiae deletion strains, growth OD, locus YNL207W, strain RIO2
Hit rate of the full screen: of about 5,500 compounds, about 2,000 (36%) were called active. About 18% were inconclusive and are not listed. Cut-off read from the data, not from the text of the source: active = normalized growth mostly below about 0.91 (no sharp cut-off); inconclusive = no clear call, values can overlap the other calls; inactive = mostly above about 0.92. Some of the results follow.
Labels: t (active), f (inactive)

OC(COc1ccc(F)cc1)(c1ccc(Cl)cc1)c1ccc(Cl)cc1: f
NC(=S)N/N=C1/CCCc2ccccc21: t
O=C(Nc1ccc(F)cc1F)c1cc(Cl)c(-n2cccc2)c(Cl)c1: f
Clc1ccc(CN2CCN(c3cccc4[nH]ccc34)CC2)cc1Cl: f
O=C(Nc1cccc(Cl)c1)O/N=C1\CCCc2occc21: f
O=C(NOC(=O)c1ccccc1)c1ccccc1: t
CC(C)(C)c1cc(C(=O)NNc2cccc(Cl)c2)n(Cc2ccccc2)n1: f
O=S(=O)(Oc1ccc(-c2csnn2)cc1)c1ccccc1Cl: f
COc1c(Br)csc1C(=O)O/N=C(/N)c1cc(C(F)(F)F)cc(C(F)(F)F)c1: f

* * *

# ASSAY_PROTOCOL: chemical genetic growth profiling, strain panel (AID 1159580);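 note: tested at 20 µM; growth read once vehicle control cultures reached saturation at 30 °C; 1 = growth at the plate median or of vehicle wells; lower values mean less growth of the strain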
# PROTOCOL_CONDITIONS: S. cerevisiae deletion strains, growth OD, locus YPL055C, strain LGE1, stronger effect = lower value
About 2,000 (36%) of roughly 5,500 compounds were called active. Roughly 18% stayed inconclusive and do not appear here. The list shows a part of the results.
ASSAY_METRIC: normalized growth

CCOC(=O)CSc1nc2cc(C(F)(F)F)cnc2n1C: 0.981
NC(=S)CSc1ccccc1: 0.855
CS(=O)(=O)c1ccc([C@@H](O)[C@@H](CO)NC(=O)C(Cl)Cl)cc1: 0.984
O=[N+]([O-])c1ccc(N2CCOCC2)cc1: 0.971
CC(C)CCCC(C)[C@H]1CCC2C3CC[C@@H]4C[C@H](O)CC[C@]4(C)C3CC[C@@]21C (some centres undefined): 1.01
CC12CCC(O)CC1CCC1C2[C@H](O)CC2(C)C(C3=CC(=O)OC3)CCC12O (some centres undefined): 1.07
CC(N=C(NC#N)Nc1ccncc1)C(C)(C)C (centres undefined): 1.03
CN=C(NC#N)Nc1ccc(C2=NNC(=O)CC2C)cc1 (centres undefined): 0.996
NC(N)=NC(N)=Nc1ccc2c(c1)OCCO2: 0.993
NCCCCCCNS(=O)(=O)c1cccc2c(Cl)cccc12: 1.04
CC(C)CCCC(C)[C@H]1CCC2C3CC=C4C[C@@H](O)CC[C@]4(C)C3CC[C@@]21C (some centres undefined): 1.03
O=c1[nH]c2cc(Cl)ccc2c(O)c1-c1ccc(Oc2ccccc2)cc1: 1.01
COc1ccc([C@@H]2Sc3ccccc3N(CCN(C)C)C(=O)[C@@H]2OC(C)=O)cc1: 0.955
O=C1N(c2ccccc2)c2ccccc2C1(Cc1ccncc1)Cc1ccncc1: 1.03
O=C(O)CCCNCc1cccc2ccccc12: 1.03
CC(=O)OC1CCC2(C)C(CC(OC(C)=O)C3(C)C4=CC(=O)OC(c5ccoc5)C4(C)CCC23)C1(C)C (centres undefined): 0.908
COc1ccc(C2Sc3ccccc3N(CCN(C)C)C(=O)C2OC(C)=O)cc1 (centres undefined): 1.04
N/C(Cc1cccc2ccccc12)=N/O: 0.897
CCC(=O)c1ccc2c(c1)N(CCCN(C)C)c1ccccc1S2: 0.988
CC(C)(C)c1cc(C(=O)NNC(=O)c2cc(C(F)(F)F)cc(C(F)(F)F)c2)n(Cc2ccc(F)cc2)n1: 0.976
CCN(CC)CCOC(=O)C(c1ccccc1)C1CCCCC1 (centres undefined): 0.959
CCCc1c(OCCCCc2nn[nH]n2)ccc(C(C)=O)c1O: 1.03
C/C1=C/CC(C)(C)/C=C/C/C(C)=C/CC1: 0.76
Nc1ccc2nonc2c1N: 0.921
Oc1c(Cl)cc(Cl)cc1Sc1cc(Cl)cc(Cl)c1O: 0.973
CC(=O)O[C@@H]1C=C[C@@]2(C)C(C[C@@H](OC(C)=O)[C@@]3(C)C4=CC(=O)O[C@@H](c5ccoc5)[C@]4(C)CCC23)C1(C)C (some centres undefined): 0.968
CCCSc1ccc2nc(NC(=O)OC)[nH]c2c1: 0.945
CN(C)CCCN1c2ccccc2Sc2ccccc21: 1.01
CCOC(CN(c1ccc(F)cc1)S(=O)(=O)c1ccc(F)cc1F)OCC: 1.04
O=C(NCO)c1cccnc1: 1.02
Clc1cncc(Cl)c1N/N=C\C1CC2C=CC1C2 (centres undefined): 0.872
O=C1NC2CC2N1C(=O)OCc1ccccc1 (centres undefined): 0.99
CC(=O)NNC(=O)N1Cc2ccccc2Oc2ccc(Cl)cc21: 1.04
CNCCCC12CCC(c3ccccc31)c1ccccc12: 0.982
